This collection of values is drawn from ChEMBL document CHEMBL1128740.

Reported IC50 by item:
test: In vitro inhibition of the Protein kinase C tyrosine kinase activity in A431 membranes; assay type: cell membranes

Compound: CN(C)CC(CSc1ccccc1)C(=O)c1ccc(OCc2ccccc2)cc1 (centres undefined)
IC50: > 500 µM
--
Compound: COC(=O)c1ccccc1SCC(CN(C)C)C(=O)c1ccc(OCc2ccccc2)cc1 (centres undefined)
IC50: > 500 µM
--
Compound: CN(C)CCC(=O)c1ccc(OCc2ccccc2)cc1
IC50: > 100 µM
--
Compound: CN(C)CC(CSCCN)C(=O)c1ccc(OCc2ccccc2)cc1 (centres undefined)
IC50: > 100 µM
--
Compound: Cc1ccc(SCC(CN(C)C)C(=O)c2ccc(OCc3ccccc3)cc2)cc1C (centres undefined)
IC50: > 500 µM
--
Compound: CCOC(=O)C1CCN(CCC(=O)c2ccc(OCc3ccccc3)cc2)CC1
IC50: > 500 µM
--
Compound: O=C(CCN1CCCCC1)c1ccc(OCc2ccccc2)cc1
IC50: > 500 µM
--
Compound: C=C(CN(C)C)C(=O)c1ccc(OS(=O)(=O)c2ccc(C(=O)O)cc2)cc1
IC50: > 500 µM

Exam item: Name the recorded IC50 for CN(C)CC(CNNC(N)=O)C(=O)c1ccc(OCc2ccccc2)cc1 (centres undefined) .
Marked response: > 500 µM
